- Assay info: Displacement of radioligand [3H]- U-69,593 on Opioid receptor kappa 1 in monkey brain membranes range; Value ranges from (9.7-14.2)
Observable: pKi
Numbers only, as −log10 of the molar value.

[in] Record request: pKi value, item O=C(/C=C/c1ccc(Cl)cc1)NC12CCC(=O)C3Oc4cccc5c4[C@@]31CCN(CC1CC1)C2C5 (stereo partly specified)
[out] 7.92

* * *

- Assay info: Displacement of radioligand [3H]- DPDPE on Opioid receptor delta 1 in monkey brain membranes range; Value ranges from (34.0-43.2)
Observable: Ki (nM)
Answers are plain numbers, in nM.

[in] Consider the molecule shown here: O=C(/C=C/c1ccc(Cl)cc1)NC12CCC(=O)C3Oc4cccc5c4[C@@]31CCN(CC1CC1)C2C5 (stereo partly specified) What is its recorded Ki?
[out] 37
